Values were extracted from patent US20210188980A1.

Known Kd of a selection of binders
target: T1, human PD-1-His protein (human, UniProt Q15116 25-167, limits assumed); assay: SPR Biacore
T1 construct: also called huPD-1; not shown: His tag
T1 sequence (Q15116 25-167 limits assumed): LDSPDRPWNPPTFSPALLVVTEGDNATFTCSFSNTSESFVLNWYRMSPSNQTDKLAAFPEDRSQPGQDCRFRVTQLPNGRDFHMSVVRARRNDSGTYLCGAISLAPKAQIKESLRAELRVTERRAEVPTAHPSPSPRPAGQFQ

[
  {
    "Binder": "HumAb713-3 (antibody, human IgG1, kappa, L234A L235A, V domains shown, humanized mAb713; also called HurnAb713-3) VH: EVQLVESGGGLVQPGGSLRLSCAASGFTSSDYGMHWVRQAPGKGLEWVSYISSGSYTIYYADTVKGRFTISRDNAKNSLYLQMNSLRDEDTAVYYCAKRGGSSHVNVMDYWGQGTTVTVSS VL: DIQMTQSPSSLSASVGDRVTITCKASDHINNWLAWYQQKPGKAPKLLIYGATSLETGVPSRFSGSGSGTDFTFTISSLQPEDIATYYCQQYWSPPYTFGGGTKVEIKR",
    "Unit Symbol": "nM",
    "Kd": 2.46
  },
  {
    "Binder": "HumAb713-1 (antibody, human IgG1, kappa, L234A L235A, V domains shown, humanized mAb713) VH: EVQLVESGGGLVQPGGSLRLSCAASGFTFSDYGMHWVRQAPGKGLEWVSYISSGSYTIYYADTVKGRFTISRDNAKNSLYLQMNSLRDEDTAVYYCARRGGSSHVNVMDYWGQGTTVTVSS VL: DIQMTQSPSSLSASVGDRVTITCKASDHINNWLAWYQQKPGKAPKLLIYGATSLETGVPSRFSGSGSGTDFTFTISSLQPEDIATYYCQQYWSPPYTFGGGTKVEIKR",
    "Unit Symbol": "nM",
    "Kd": 11.1
  }
]
